Molecular target: TYK2 (Homo sapiens, UniProt P29597)
Sequence (P29597 whole entry): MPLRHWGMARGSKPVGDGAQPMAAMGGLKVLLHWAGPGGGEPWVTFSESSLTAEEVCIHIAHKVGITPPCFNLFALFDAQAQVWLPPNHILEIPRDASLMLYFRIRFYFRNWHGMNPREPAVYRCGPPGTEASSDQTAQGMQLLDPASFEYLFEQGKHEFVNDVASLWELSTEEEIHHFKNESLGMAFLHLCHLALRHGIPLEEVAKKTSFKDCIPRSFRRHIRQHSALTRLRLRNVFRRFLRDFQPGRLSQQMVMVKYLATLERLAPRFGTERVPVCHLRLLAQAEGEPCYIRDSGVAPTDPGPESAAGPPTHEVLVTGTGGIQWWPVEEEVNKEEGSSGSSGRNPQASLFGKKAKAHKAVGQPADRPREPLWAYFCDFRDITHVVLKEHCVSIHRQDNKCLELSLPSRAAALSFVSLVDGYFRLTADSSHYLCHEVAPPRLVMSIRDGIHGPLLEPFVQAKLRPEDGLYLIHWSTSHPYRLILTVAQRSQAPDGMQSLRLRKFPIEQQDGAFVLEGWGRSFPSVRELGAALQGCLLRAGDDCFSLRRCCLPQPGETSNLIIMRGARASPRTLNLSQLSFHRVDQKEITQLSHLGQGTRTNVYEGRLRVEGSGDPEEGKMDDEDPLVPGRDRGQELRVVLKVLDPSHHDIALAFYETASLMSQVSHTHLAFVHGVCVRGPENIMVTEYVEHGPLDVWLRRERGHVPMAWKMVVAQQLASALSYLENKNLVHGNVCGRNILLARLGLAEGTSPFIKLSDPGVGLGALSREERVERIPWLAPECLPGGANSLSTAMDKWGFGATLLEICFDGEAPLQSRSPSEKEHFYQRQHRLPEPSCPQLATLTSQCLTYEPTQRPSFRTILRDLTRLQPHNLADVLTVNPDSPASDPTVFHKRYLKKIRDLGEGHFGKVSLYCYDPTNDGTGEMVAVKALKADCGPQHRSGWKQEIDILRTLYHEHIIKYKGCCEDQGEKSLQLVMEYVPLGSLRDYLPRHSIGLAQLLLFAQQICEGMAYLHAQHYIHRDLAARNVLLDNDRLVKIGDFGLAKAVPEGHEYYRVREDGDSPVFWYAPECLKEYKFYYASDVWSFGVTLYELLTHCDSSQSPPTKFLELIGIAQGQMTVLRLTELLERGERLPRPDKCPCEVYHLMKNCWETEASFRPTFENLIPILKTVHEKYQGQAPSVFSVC
Assay: TYK2 degradation MSD assay in human PBMC cells
Assay type: cell-based
Design: endogenous in cells; host or cells: human PBMC
Details: 4 to 24 hours incubation, read-out: TYK2 MSD DC50 rating in human PBMC
READOUT NAME: DC50

Incoming: May I ask what DC50 has been recorded for [2H]C([2H])([2H])NC(=O)c1nnc(Nc2ccc(CN(C)CC3CCN(c4ccc5c(c4)n(C)c(=O)n5C4CCC(=O)NC4=O)CC3)cn2)cc1Nc1cccc(F)c1OC (centres unmarked) [Example K712] ?
Outgoing: > 100 nM

Incoming: Quick one: DC50 for Cn1c(=O)n(C2CCC(=O)NC2=O)c2ccc(-c3ccc(N4CC5(CN(Cc6ccc(-c7cccc(Nc8ccc9ncc(C(=O)NC%10CC%10)n9n8)c7)nc6)C5)C4)cc3)cc21 (centres unmarked) [Example K515] ?
Outgoing: > 100 nM

Incoming: Quick one: DC50 for CNC(=O)c1cnc(Nc2ccc(CN3CCC(OC4CC(c5cccc6c5n(C)c(=O)n6C5CCC(=O)NC5=O)C4)CC3)cn2)cc1Nc1cccc(-c2ncc(F)cn2)c1OC (centres unmarked) [Example K141] ?
Outgoing: < 1 nM

Incoming: Look up DC50: CNC(=O)c1cnc(Nc2ccc(C(=O)N(C)C3CCN(c4ccc5c(c4)n(C)c(=O)n5C4CCC(=O)NC4=O)CC3)cn2)cc1Nc1ccccc1OC (centres unmarked) [Example K133]
Outgoing: > 100 nM

Incoming: I would be grateful if you could share the reported DC50 for CNc1cc(Nc2cccn(-c3cc(C(=O)NCCOCCOCCc4cccc5c4n(C)c(=O)n5C4CCC(=O)NC4=O)ccn3)c2=O)nn2c(C(=O)N[C@@H]3C[C@@H]3F)cnc12 (some centres unmarked) [Example K238] .
Outgoing: > 100 nM
